Reported values of IC50 for individual entries
biological target: UniProtKB P12268

Chemical Structure	Relation Qualifier	IC50 (nM)
COc1cc(NC(=O)C(=O)NNc2ccccc2)ccc1-c1cnco1	>	10000
COc1cc(NC(=O)CC(=O)Nc2cccc(C)c2)ccc1-c1cnco1	=	440
COc1cc(NC(=O)C(=O)NC2CCCCC2)ccc1-c1cnco1	>	10000
COc1cc(NC(=O)C(=O)NC(C)C)ccc1-c1cnco1	>	10000
COC(=O)C(C)(C)NC(=O)C(=O)Nc1ccc(-c2cnco2)c(OC)c1	=	74
COc1cc(NC(=O)C(=O)Nc2ccccc2)ccc1-c1cnco1	=	52
COc1cc(NC(=O)C(=O)NC2(CO)CCCC2)ccc1-c1cnco1	=	18
CC(C)(C)NC(=O)C(=O)Nc1ccc(-c2cnco2)c(Br)c1	=	50
COc1cc(NC(=O)C(=O)NC(C)(C)C)ccc1-c1cnco1	=	10
CC(C)(C)NC(=O)C(=O)Nc1ccc(-c2cnco2)c(Cl)c1	=	55
